Where these numbers come from: PubChem BioAssay (NCATS)

Assay: qHTS assay to identify small molecule inhibitors of chordoma cells - UCH-1 (AID 1259355); further: nearly all actives have a fitted effect of over 55% in size
Details: UCH-1 chordoma viability, CellTiter-Glo, 48 h, combination, with auranofin plus four topoisomerase inhibitors; series mostly up to 46.1 µM
Excerpt: NIH Chemical Genomics Center [NCGC] Chordoma is a rare and slow growing tumor that can occur anywhere along the spine, from the base of the skull to the tailbone. Current treatment options for chordoma is surgery and radiation therapy for those who are not candidates for surgery. But chordomas tend to return in the same location or surrounding areas of the original tumor after surgery and/or radiation. Chemotherapy can slow down the progression of the tumor. […]
Records with an inconclusive call do not appear. Active and inactive are the calls of the source. The call rests on the fitted dose curve; in most records, active means well fitted cell-killing curve with a large enough effect; inconclusive means small, poorly fitted or top-dose-only effect, or effect the other way; inactive means no such curve, though single readings can be large or run the other way. Non-standard residues stand in square brackets, D forms with d. Residues, ends and D or L forms follow the SMILES beside them. Peptide text beside a SMILES is read from it. *: point of attachment. Sta = CC(C)C[C@H](N)[C@@H](O)CC(=O)O; Isovaleryl = CC(C)CC(=O)*
Pick from label 1 (active), label 0 (inactive) when you respond.

query: // outcome(item) with item = Nc1cc(C(Cl)=C(Cl)Cl)c(S(N)(=O)=O)cc1S(N)(=O)=O
result: label 0

query: # iterate: CCOc1cc(CC(=O)N[C@@H](CC(C)C)c2ccccc2N2CCCCC2)ccc1C(=O)O
result: label 0

query: Entry to check: N=C(N=C(N)N)N1CCOCC1
result: label 0

query: Try O=P(O)(O)C(O)(Cn1ccnc1)P(=O)(O)O next.
result: label 0

query: And the next one, CCC(C)(Oc1ccc(C2(c3ccc(OC(C)(CC)C(=O)O)cc3)CCCCC2)cc1)C(=O)O (stereo not drawn) ?
result: label 0

query: Now give it for Cc1ccc(C)c(OCCCC(C)(C)C(=O)O)c1 too.
result: label 0

query: Check O=c1oc2cc(O)ccc2s1 too.
result: label 0

query: Same lookup for O=C(CS(=O)Cc1ccco1)NCC=CCOc1cc(CN2CCCCC2)ccn1 (stereo not drawn) , please.
result: label 0

query: Also need COc1c2occc2cc2ccc(=O)oc12 , thanks.
result: label 0

query: Repeat with O=C(NC(Cc1cc(=O)[nH]c2ccccc12)C(=O)O)c1ccc(Cl)cc1 (stereo not drawn)
result: label 0

query: Further, for CN(C)c1ccc2nc3ccc(=[N+](C)C)cc-3sc2c1 ?
result: label 1

query: And the next one, C[C@]12CCC(=O)C=C1CC[C@@H]1[C@H]2[C@@H](O)C[C@@]2(C)[C@H]1CC[C@]2(O)C(=O)CO ?
result: label 0

query: Item: CN1CCC(=C2c3ccccc3CCc3sccc32)CC1
result: label 0

query: Would you mind doing Nc1cccc2c1CN(C1CCC(=O)NC1=O)C2=O (stereo not drawn) as well?
result: label 0

query: Field entry: COc1ccc(C2(C#N)CCC(C(=O)O)CC2)cc1OC1CCCC1 (stereo not drawn)
result: label 0

query: Next compound up: NS(=O)(=O)c1cc(C(=O)O)c(NCc2ccco2)cc1Cl
result: label 0

query: Query COC(=O)[C@H](Cc1ccccc1)NC(=O)[C@@H](N)CC(=O)O (H-Asp-Phe-OMe) next
result: label 0

query: Then this compound: Nc1nc(Cl)nc2c1ncn2[C@H]1C[C@H](O)[C@@H](CO)O1
result: label 0

query: And then CCN(CC)CCOc1ccc(Cc2ccccc2)cc1 , what is it?
result: label 0

query: Lookup Nc1ccn([C@@H]2O[C@H](CO)[C@@H](O)C2O)c(=O)n1 (stereo partly drawn)
result: label 0

query: Now the same for CC1(C)NC(=O)N(c2ccc([N+](=O)[O-])c(C(F)(F)F)c2)C1=O
result: label 0

query: // repeat for CC(C)[C@H](N)C(=O)OCCOCn1cnc2c(=O)[nH]c(N)nc21 and report
result: label 0

query: Please do the same for COCCCOc1ccnc(CS(=O)c2nc3ccccc3[nH]2)c1C (stereo not drawn) as well.
result: label 0

query: Cool, now O=C(O)c1cccnc1Nc1cccc(C(F)(F)F)c1
result: label 0

query: What about this compound? CN(C)C(=O)COC(=O)Cc1ccc(OC(=O)c2ccc(N=C(N)N)cc2)cc1
result: label 0

query: Another compound to check: c1ccc2[nH]c(-c3cscn3)nc2c1
result: label 0

query: How about Nc1ncn([C@H]2C[C@H](O)[C@@H](CO)O2)c(=O)n1 ?
result: label 0

query: // same read-out, input: Clc1ccc(C(Cn2ccnc2)OCc2c(Cl)cccc2Cl)c(Cl)c1 (stereo not drawn)
result: label 0

query: // repeat for COC1=C(OC)C(=O)C(CCCCCCCCCCO)=C(C)C1=O and report
result: label 0

query: # iterate: CC(C)CC(=O)N[C@H](C(=O)N[C@H](C(=O)N[C@@H](CC(C)C)[C@@H](O)CC(=O)N[C@@H](C)C(=O)N[C@@H](CC(C)C)[C@@H](O)CC(=O)O)C(C)C)C(C)C (Isovaleryl-VV[Sta]A[Sta]-OH)
result: label 0

query: Further, for CCc1nc(N)nc(N)c1-c1ccc(Cl)cc1 ?
result: label 0

query: Please do the same for Cc1cccc(C)c1OCC(=O)N[C@@H](Cc1ccccc1)[C@@H](O)C[C@H](Cc1ccccc1)NC(=O)[C@H](C(C)C)N1CCCNC1=O as well.
result: label 0

query: Proceed to CN1C(C(=O)Nc2ccccn2)=C(O)c2sccc2S1(=O)=O
result: label 0

query: Cool, now O=C(c1ccccc1)c1ccc2n1CCC2C(=O)O (stereo not drawn)
result: label 0

query: And what about the compound N=C(N)c1ccc2cc(OC(=O)c3ccc(N=C(N)N)cc3)ccc2c1 ?
result: label 0

query: And for CN(c1nccc(=O)[nH]1)C1CCN(c2nc3ccccc3n2Cc2ccc(F)cc2)CC1 ?
result: label 0

query: Then this compound: CCCCC(CC)COC(=O)C(C#N)=C(c1ccccc1)c1ccccc1 (stereo not drawn)
result: label 0

query: Next compound: C[C@H](Cn1cnc2c(N)ncnc21)OCP(=O)(O)O
result: label 0

query: Repeat with CC(C)(S)[C@@H](N)C(=O)O
result: label 0

query: Next up: O=C(OC1C[C@H]2CC[C@@H](C1)[N+]21CCCC1)C(O)(c1ccccc1)c1ccccc1 (stereo partly drawn)
result: label 0

query: Could you do the same for CN(C)c1ccc(O)c2c1C[C@H]1C[C@H]3[C@H](N(C)C)C(=O)C(C(N)=O)=C(O)[C@@]3(O)C(=O)C1=C2O , please?
result: label 0

query: Same again, this time with O=C(NCCO[N+](=O)[O-])c1cccnc1
result: label 0

query: Lookup CCN(CCO)CCCC(C)Nc1ccnc2cc(Cl)ccc12 (stereo not drawn)
result: label 0

----------
Field: parasite growth remaining, % of DMSO control (lower = more inhibition). Provide a value for each of the compounds that follow.
experiment: qHTS profiling of the MIPE4 collection as inhibitors of Plasmodium falciparum (DD2) proliferation (AID 743345); conditions: P. falciparum Dd2 in erythrocytes, SYBR Green DNA, 72 h; at 28.5 µM (top of the series) unless noted

query: Item CN1CCC(=C2c3ccccc3CCc3sccc32)CC1 has what recorded parasite growth remaining, % of DMSO control (lower = more inhibition)?
result: 50.7%

query: And for S=c1nc[nH]c2nc[nH]c12 ?
result: 96%

query: Follow-up entry: CC1=C(C(=O)O)N2C(=O)[C@@H](NC(=O)[C@H](N)C3=CCC=CC3)[C@H]2SC1
result: 87.3%

query: Thanks! And COC(=O)C1=C(C)NC(C)=C(C(=O)OC(C)C)C1c1cccc2nonc12 (stereo unspecified) ?
result: 96.4%

query: Same again, this time with CCCc1cc(=O)[nH]c(=S)[nH]1
result: 93.3%

query: Would you kindly repeat that for Nc1cccc2c1CN(C1CCC(=O)NC1=O)C2=O (stereo unspecified) ?
result: 107% [at 57.5 µM]

----------
target: Muscarinic acetylcholine receptor M1 (Rattus norvegicus) (UniProt P08482); test: qHTS Assay for Antagonists of Acetylcholine Muscarinic M1 Receptor: Kinetic Measurement of Intracellular Calcium Response (AID 943); settings: M1-expressing cells, kinetic intracellular calcium fluorescence; series mostly up to 35.3 µM; further: nearly all actives have a fitted effect of over 75% in size
Sequence (P08482 whole entry, looked up): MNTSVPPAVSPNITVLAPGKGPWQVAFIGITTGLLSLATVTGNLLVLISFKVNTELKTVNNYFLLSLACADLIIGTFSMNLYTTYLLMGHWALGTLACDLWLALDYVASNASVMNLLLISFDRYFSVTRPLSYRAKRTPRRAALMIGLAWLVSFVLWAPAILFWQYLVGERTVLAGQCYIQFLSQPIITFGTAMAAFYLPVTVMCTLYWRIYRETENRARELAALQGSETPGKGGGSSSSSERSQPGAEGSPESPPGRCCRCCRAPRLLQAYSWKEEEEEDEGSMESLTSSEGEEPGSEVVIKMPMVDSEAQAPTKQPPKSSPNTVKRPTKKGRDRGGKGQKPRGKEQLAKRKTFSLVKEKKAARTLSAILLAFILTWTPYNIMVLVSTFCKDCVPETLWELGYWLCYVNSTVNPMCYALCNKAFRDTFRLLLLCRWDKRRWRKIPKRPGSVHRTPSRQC
Inconclusive results are not listed. Calls of active or inactive are those of the source. Calls follow the shape of the dose curve; as a rule, active = well fitted inhibition curve with a large enough effect; inconclusive = small, poorly fitted or top-dose-only effect; inactive = no such curve, though single readings can be large or run the other way.
// classify into active, inactive

query: Just curious, what result did Oc1ccc(-c2nc(-c3ccc(F)cc3)c(-c3ccncc3)[nH]2)cc1 get here?
result: inactive

query: # repeat for O=C1c2ccccc2-c2n[nH]c3cccc1c23
result: inactive

query: Entry COc1ccccc1N1CCN(CCN(C(=O)C2CCCCC2)c2ccccn2)CC1 please
result: inactive

query: Repeat with O=c1ccc2ccc(O)c(O)c2o1
result: inactive

query: Lookup O=Nc1c(-c2c(O)[nH]c3cc(Br)ccc23)[nH]c2ccccc12
result: active

query: How about this compound: NCCCCNCCCN
result: inactive

----------
experiment: P-glycoprotein substrates identified in KB-3-1 adenocarcinoma cell line, qHTS therapeutic library screen (AID 1346986); settings: KB-3-1 parental cells viability, CellTiter-Glo, 72 h; series mostly up to 44.5 µM; further: nearly all actives have a fitted effect of over 60% in size
Inconclusive results are not listed. Calls of active or inactive are those of the source. Calls follow the shape of the dose curve; as a rule, active = well fitted inhibition curve with a large enough effect; inconclusive = small, poorly fitted or top-dose-only effect; inactive = no such curve, though single readings can be large or run the other way.
Would you mind answering with one of these outcomes? class 1 (active), class 0 (inactive)

query: Could you please tell me the result logged for N[C@@H](Cc1cc(I)c(Oc2cc(I)c(O)c(I)c2)c(I)c1)C(=O)O in this assay?
result: class 0

query: Could you do the same for CC(C)[C@H](N)C(=O)OCCOCn1cnc2c(=O)[nH]c(N)nc21 , please?
result: class 0

query: Item: CCCCC(CC)COC(=O)C(C#N)=C(c1ccccc1)c1ccccc1 (stereo unspecified)
result: class 0

query: Next compound up: C[C@H](Cn1cnc2c(N)ncnc21)OCP(=O)(O)O
result: class 0

query: Another compound to look at: Cc1nccn1CC1CCc2c(c3ccccc3n2C)C1=O (stereo unspecified)
result: class 0

query: Consider next the compound O=c1ccc2ccc(O)c(O)c2o1 in the same way.
result: class 0

query: Do the same for CC(C)c1ccc2oc3nc(N)c(C(=O)O)cc3c(=O)c2c1 please
result: class 0

query: Would you mind doing COCCCOc1ccnc(CS(=O)c2nc3ccccc3[nH]2)c1C (stereo unspecified) as well?
result: class 0

query: // same read-out, input: CC1=C(C(=O)O)N2C(=O)[C@@H](NC(=O)[C@H](N)C3=CCC=CC3)[C@H]2SC1
result: class 0

query: Same read-out for CCCOc1ccc2nc(NC(=O)OC)[nH]c2c1 ?
result: class 1

query: Now the same for Cc1cc2cc3c(C)cc(=O)oc3c(C)c2o1
result: class 0
